// provenance: PubChem BioAssay (NCI)

Tested on: KM12 colon
Assay: NCI tumour cell line growth inhibition, 48 h
attribute measured: log10 TGI (log10 of the value in µM)
Quick note: numbers are log10 of TGI, with µM as the unit.

Here is how some molecules turned out for log10 TGI.
molecule: NC1c2ccccc2Nc2ccccc21
val: 1.23
//
molecule: CSc1cnc2ccccc2c1Sc1c[nH]c2ccccc2c1=O
val: 1.35
//
molecule: CC/C(Cc1ccccc1)=C(\c1ccc(OCCN2CCCC2)cc1)c1ccc(OC(=O)NCc2ccccc2)cc1
val: 0.58
//
molecule: Cc1ccc(-c2nc(/C=N/Nc3cc(C)nc4ccc(Cl)cc34)c(C)o2)cc1
val: 0.59
//
molecule: CCCCC#Cc1c(I)n(C)c(=O)[nH]c1=O
val: 1.47

Hi, could you look up log10 TGI for each item in my list?
1. CCC[CH2][Sn]([CH2]CCC)([S]C#N)[S]C#N
2. O=C1/C(=C/c2ccc(F)cc2)CN(C(=O)CCN2CCC(=NO)CC2)C/C1=C\c1ccc(F)cc1
3. c1ccc(OCCC[P+](c2ccccc2)(c2ccccc2)c2ccccc2)cc1
4. O=C1CSC(c2ccccc2Cl)N1c1nnc(Cn2cnnc2)o1 (configuration not stated)
5. CCC(=O)OC1CCn2c1nc1c2C(=O)C(C)=C(NC(C)=O)C1=N (configuration not stated)

0.49
0.12
1.04
1.31
0.73

Record log10 TGI per entry; entries follow.
1. Cc1cc(-c2c(F)cc3c4nn([C@H]5CC[C@@H](N(C)C)CC5)c(=O)c-4cn(C4CC4)c3c2F)cc(C)n1
2. CC1CCC2(OC1)OC1C(O)C3C4CCC5CC(OC6OC(CO)C(OC7OC(CO)C(O)C(OC8OCC(O)C(O)C8O)C7OC7OC(CO)C(O)C(OC8OC(CO)C(O)C(O)C8O)C7O)C(O)C6O)C(O)CC5(C)C4CCC3(C)C1C2C (configuration not stated)

[0.05, 0.68]

Give measured log10 TGI for every item shown.
1. C=C1CC(C)(c2cccc(Nc3nc4ccccc4c4occc34)c2)OC1=O (configuration not stated)
2. O=C(OCc1ccccc1)N1CCNCCNCCN(C(=O)OCc2ccccc2)CCNCC1
3. CN(C)CC1CC/C(=C\c2ccc3c(c2)OCO3)C1=O (configuration not stated)
4. CSc1nc2nc3c(nc2c(=O)n1C)C(=O)c1ccccc1C3=O

1. 1.64
2. 1.85
3. 1.28
4. 0.00

---

Test system: SNB-19 CNS
Test: NCI tumour cell line growth inhibition, 48 h
attribute measured: TGI

compound: COc1ccccc1S(=O)(=O)Nc1ccc2c3c(cc(CCC(=O)NCCCCNc4cccc5c4C(=O)N(C4CCC(=O)NC4=O)C5=O)cc13)C(=O)N2C (stereo unspecified)
tested target: SNB-19 CNS
TGI: > 100 µM

For every item in the list below, what is its measured TGI?
1. N#CC(C(=O)CCCC(=O)Nc1ccc(Cl)cc1Cl)c1ccccc1 (stereo unspecified)
2. CC1(C)COC(c2ccc(CC(Cc3ccc(C4(C(C)(C)C)OCC(C)(C)CO4)cc3)C(=O)O)cc2)(C(C)(C)C)OC1
3. Cn1c(=O)sc2cc(C(=S)N3CCCCC3)ccc21
4. CC1(C)O[C@@H](C[C@]2(C#N)C[C@H](CCl)OC(C)(C)O2)C[C@@H](C#N)O1
5. CC(C)c1cccc(C(C)C)c1N1C(=O)C(=O)C(c2nc3ccccc3o2)C(=O)C1=O

> 100 µM
> 100 µM
> 100 µM
> 100 µM
> 100 µM
